Entry source: patent EP4810483A1

Entries and their measured AUC(0-t) follow.
- PROTOCOL_DETAILS: Pharmacokinetic evaluation in mice (IV and PO)
- Type: in vivo
- STUDY_CONDITIONS: mouse, plasma; CD-1 mice; PO; dose IV:1, PO:5 mg/kg; read-out: Area under the concentration-time curve AUC0-last PO
- Method: Test Method 2: Pharmacokinetic Evaluation in Mice Assay method: Test compounds were mixed with 5% DMSO / 60% polyethylene glycol (PEG400) / 35% water, vortexed and sonicated to obtain a clear 0.2 mg/mL solution, which was then filtered through a microporous membrane before use. […] The content of the target compound in plasma samples was determined by LC/MS/MS method, and pharmacokinetic parameters were calculated using Phoenix WinNonlin software (Pharsight, USA). […]
Your answer is read as µM·h, so omit the unit and give the number.

Solved cases (2 shown):
MOLECULAR_STRING	MEASURED_METRIC	REPORTED
Cc1c(NC(=O)CC(C)(C)C)n(C)c2cc(Nc3ccc(F)cc3)ccc12	AUC(0-t)	4.57
Cc1nc(Nc2ccc3c(C)c(NC(=O)CC4(C)CC4)n(C)c3c2)ccc1F	AUC(0-t)	29.5

Input: Find the measured AUC(0-t) of Cc1nc(Nc2ccc3c(C)c(NC(=O)CC(C)(C)C)n(C)c3c2)ccc1F and report it.
Output: 21.4

---

- TESTED_TARGET: CYP2C19 (Homo sapiens, UniProt P33261)
- Sequence (P33261 whole entry): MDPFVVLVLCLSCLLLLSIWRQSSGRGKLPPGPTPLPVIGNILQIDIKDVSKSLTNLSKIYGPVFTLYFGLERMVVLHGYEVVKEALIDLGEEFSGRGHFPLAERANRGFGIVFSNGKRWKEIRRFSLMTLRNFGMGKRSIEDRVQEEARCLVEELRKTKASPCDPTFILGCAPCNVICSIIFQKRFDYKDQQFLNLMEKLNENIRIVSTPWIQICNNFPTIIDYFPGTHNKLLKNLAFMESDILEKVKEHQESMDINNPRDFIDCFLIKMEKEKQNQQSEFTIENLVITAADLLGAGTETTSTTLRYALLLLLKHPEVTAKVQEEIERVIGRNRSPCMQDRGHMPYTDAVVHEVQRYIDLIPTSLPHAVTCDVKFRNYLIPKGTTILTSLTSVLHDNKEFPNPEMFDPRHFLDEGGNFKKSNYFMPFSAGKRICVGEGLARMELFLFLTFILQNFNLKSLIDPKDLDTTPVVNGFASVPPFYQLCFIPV
- PROTOCOL_DETAILS: Drug-drug interaction evaluation: CYP inhibition in human liver microsomes (cocktail method)
pIC50: −log10 of the molar value.
MEASURED_METRIC: pIC50

Reference set (2 entries):
COMPOUND	pIC50
Cc1cc(F)cnc1Nc1ccc2c(C)c(NC(=O)CC(C)(C)C)n(C)c2c1 [Compound 31]	< 4.30
Cc1c(NC(=O)CC2(C)CC2)n(C)c2cc(Nc3ncc(F)cc3F)ccc12 [Compound 35]	< 4.30

Input: Answer with reported pIC50 of Cc1nc(Nc2ccc3c(C)c(NC(=O)CC(C)(C)C)n(C)c3c2)ccc1F [Compound 41]
Output: < 4.30

---

- TESTED_TARGET: hKCNQ2/3 (Homo sapiens, UniProt O43525+O43526)
- Construct: expressed in transfected cells; host or cells: CHO
- Sequence (O43526 whole entry): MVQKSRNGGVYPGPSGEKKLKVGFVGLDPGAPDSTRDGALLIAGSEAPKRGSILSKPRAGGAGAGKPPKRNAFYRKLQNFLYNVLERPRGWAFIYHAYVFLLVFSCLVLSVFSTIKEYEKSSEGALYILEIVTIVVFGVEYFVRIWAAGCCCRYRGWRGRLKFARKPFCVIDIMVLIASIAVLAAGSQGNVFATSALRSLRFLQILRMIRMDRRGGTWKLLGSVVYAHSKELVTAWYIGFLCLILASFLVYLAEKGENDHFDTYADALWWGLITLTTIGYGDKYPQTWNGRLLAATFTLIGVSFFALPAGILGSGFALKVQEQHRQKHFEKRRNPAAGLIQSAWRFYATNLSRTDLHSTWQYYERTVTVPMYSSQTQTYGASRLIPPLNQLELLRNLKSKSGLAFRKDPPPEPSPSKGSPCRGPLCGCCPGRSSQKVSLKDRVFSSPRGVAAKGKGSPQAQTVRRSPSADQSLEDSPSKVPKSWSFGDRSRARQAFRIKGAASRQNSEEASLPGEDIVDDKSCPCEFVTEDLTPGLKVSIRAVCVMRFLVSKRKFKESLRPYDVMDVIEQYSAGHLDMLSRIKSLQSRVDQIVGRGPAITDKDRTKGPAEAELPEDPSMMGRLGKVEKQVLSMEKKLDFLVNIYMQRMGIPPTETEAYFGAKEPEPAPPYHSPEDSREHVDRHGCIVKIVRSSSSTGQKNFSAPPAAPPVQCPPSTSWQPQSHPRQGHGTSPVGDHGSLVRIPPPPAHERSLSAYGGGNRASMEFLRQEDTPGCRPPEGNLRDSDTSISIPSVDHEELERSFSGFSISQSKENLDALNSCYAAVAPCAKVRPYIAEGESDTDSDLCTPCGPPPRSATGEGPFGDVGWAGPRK
- Sequence (O43525 whole entry): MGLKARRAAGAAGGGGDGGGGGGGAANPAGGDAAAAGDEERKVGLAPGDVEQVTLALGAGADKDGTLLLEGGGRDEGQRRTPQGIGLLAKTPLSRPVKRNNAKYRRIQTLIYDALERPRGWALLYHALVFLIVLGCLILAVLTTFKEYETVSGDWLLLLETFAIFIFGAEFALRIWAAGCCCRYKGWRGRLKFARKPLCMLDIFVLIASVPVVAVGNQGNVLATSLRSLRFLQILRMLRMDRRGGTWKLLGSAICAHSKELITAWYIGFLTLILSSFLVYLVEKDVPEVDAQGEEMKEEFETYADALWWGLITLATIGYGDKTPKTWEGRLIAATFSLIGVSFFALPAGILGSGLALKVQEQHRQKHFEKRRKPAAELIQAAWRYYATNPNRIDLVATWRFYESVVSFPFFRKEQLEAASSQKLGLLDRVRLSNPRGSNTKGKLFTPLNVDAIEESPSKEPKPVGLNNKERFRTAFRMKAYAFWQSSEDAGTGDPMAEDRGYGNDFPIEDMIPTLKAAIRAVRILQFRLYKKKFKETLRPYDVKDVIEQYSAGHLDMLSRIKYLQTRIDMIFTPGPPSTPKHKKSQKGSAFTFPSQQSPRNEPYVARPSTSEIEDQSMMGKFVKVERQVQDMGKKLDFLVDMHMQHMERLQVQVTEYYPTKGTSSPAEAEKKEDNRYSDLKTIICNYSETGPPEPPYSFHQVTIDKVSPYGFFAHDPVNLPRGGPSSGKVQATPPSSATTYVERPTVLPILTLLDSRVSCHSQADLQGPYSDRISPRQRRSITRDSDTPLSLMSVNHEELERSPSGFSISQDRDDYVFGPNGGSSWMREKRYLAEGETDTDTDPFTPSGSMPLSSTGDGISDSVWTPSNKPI
- PROTOCOL_DETAILS: cell-based
- STUDY_CONDITIONS: agonistic effect; CHO cells stably expressing hKCNQ2/3; FLIPR thallium flux; read-out: EC50
Property: EC50; scope: individual compounds
Write the answer as a number in nM, unit excluded.

Check out these entries, answers already filled in.
MOLECULAR_STRING	EC50, nM
Cc1ccc(Nc2ccc3c(C)c(NC(=O)CC(C)(C)C)n(C)c3c2)nc1	410
Cc1c(NC(=O)C2CCC2)n(C)c2cc(Nc3ccc(F)cn3)ccc12	430

Here's the next entry for you.
Input: Quick one: give measured EC50 for CCC(=O)Nc1c(C)c2ccc(Nc3ccc(F)cc3)cc2n1C
Output: 700

---

- TESTED_TARGET: CYP2C9 (Homo sapiens, UniProt P11712)
- Sequence (P11712 whole entry): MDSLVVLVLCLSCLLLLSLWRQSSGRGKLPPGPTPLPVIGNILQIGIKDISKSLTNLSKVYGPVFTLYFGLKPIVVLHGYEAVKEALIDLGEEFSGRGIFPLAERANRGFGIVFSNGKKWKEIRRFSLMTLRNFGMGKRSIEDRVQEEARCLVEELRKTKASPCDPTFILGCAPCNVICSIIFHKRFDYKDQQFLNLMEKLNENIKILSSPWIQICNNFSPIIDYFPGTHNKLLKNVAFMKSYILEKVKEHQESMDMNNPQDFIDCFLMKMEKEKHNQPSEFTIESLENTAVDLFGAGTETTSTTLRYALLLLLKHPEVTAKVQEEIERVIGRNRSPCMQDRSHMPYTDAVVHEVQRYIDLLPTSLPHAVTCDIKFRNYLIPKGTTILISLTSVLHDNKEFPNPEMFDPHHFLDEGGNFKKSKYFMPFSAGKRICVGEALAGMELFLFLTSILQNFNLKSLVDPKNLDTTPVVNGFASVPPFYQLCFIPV
- PROTOCOL_DETAILS: Drug-drug interaction evaluation: CYP inhibition in human liver microsomes (cocktail method)
MEASURED_METRIC: IC50

MOLECULAR_STRING	TESTED_TARGET	IC50
Cc1c(NC(=O)CC2(C)CC2)n(C)c2cc(Nc3ncc(F)cc3F)ccc12	CYP2C9 (Homo sapiens, UniProt P11712)	> 50 µM

Input: Give reported IC50 value for Cc1cc(F)cnc1Nc1ccc2c(C)c(NC(=O)CC(C)(C)C)n(C)c2c1
Output: > 50 µM

Input: Please supply the value of reported IC50 for the item Cc1c(NC(=O)CC(C)(C)C)n(C)c2cc(Nc3ncc(F)cc3F)ccc12
Output: > 50 µM
